# Study target: Fibroblast growth factor 10 (Homo sapiens) (UniProt O15520)
# Sequence (O15520 whole entry, looked up): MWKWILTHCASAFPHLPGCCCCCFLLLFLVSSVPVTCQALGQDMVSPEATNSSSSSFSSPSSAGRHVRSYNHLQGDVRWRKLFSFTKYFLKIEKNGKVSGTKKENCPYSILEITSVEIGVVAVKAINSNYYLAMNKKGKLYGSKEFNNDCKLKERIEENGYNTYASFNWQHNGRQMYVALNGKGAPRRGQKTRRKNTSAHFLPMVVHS
# Measurement description: FGF10 binders on small-molecule microarrays, primary screen, biochemical, small-molecule microarray, 635 nm fluorescence (AID 1102)
# Measurement parameters: FGF10 binding, fluorescence 635 nm, higher = more signal
Record Yes whenever composite z-score is at 0.01 or higher; record No when lower.

Prompt: Check this compound for composite z-score at or above 0.01: `O=C1O[C@@H](c2ccccc2)[C@@H](c2ccccc2)N2[C@@H](c3ccccc3OCCO)[C@]3(C(=O)Nc4ccc(C#CCCO)cc43)[C@@H](C(=O)N3CCCCCCC3)[C@H]12`
Completion: Yes

Prompt: Check this compound for composite z-score at or above 0.01: O=C1OCC=C[C@H]2OC34C=CCN(c5ccc(Cl)cc5)C(=O)[C@H]3N(CCO)C(=O)[C@@H]4[C@@H]12 (stereo partly specified)
Completion: No

Prompt: Check this compound for composite z-score at or above 0.01: `CCOC(=O)C[C@H]1[C@H](OC(=O)c2ccccc2-c2ccccc2)[C@@H](NC(=O)C2CCCCC2)c2cc(OCCCO)ccc2N1C(=O)Cc1ccc(OC)cc1`
Completion: Yes

Prompt: Check this compound for composite z-score at or above 0.01: `C[N+](C)(C)CCCC[C@@H]1NC(=O)[C@H]2C[C@@H](C(=O)NCCCCCCN)[C@@H](c3ccc(O)cc3)N2C1=O`
Completion: Yes

Prompt: Check this compound for composite z-score at or above 0.01: `O=c1n(-c2ccccc2)c(=O)n2n1CC(COc1ccccc1)=C([C@H](O)CCc1ccccc1)[C@@H]2CO`
Completion: Yes

Prompt: Check this compound for composite z-score at or above 0.01: `O=C1O[C@H](c2ccccc2)[C@H](c2ccccc2)N2[C@H]1[C@@H](C(=O)O)[C@]1(C(=O)Nc3ccc(C#CC4=CCCCC4)cc31)[C@H]2c1ccc(O)cc1`
Completion: Yes

Prompt: Check this compound for composite z-score at or above 0.01: `O=C1O[C@@H](c2ccccc2)[C@@H](c2ccccc2)N2[C@@H](c3ccc(O)cc3)[C@]3(C(=O)Nc4ccc(C#CC5=CCCCC5)cc43)[C@@H](C(=O)NC[C@H](O)c3ccccc3)[C@H]12`
Completion: Yes

Prompt: Check this compound for composite z-score at or above 0.01: `CCOC(=O)C[C@H]1[C@H](OC(=O)c2cc3ccccc3oc2=O)[C@@H](NC(=O)c2ccc(-c3ccccc3)cc2)c2cc(OCCCO)ccc2N1C(=O)c1ccccc1`
Completion: Yes

Prompt: Check this compound for composite z-score at or above 0.01: `COCCOC(=O)N1C(=O)[C@@]2(c3cc(C#CC4=CCCCC4)ccc31)[C@H](C(N)=O)[C@H]1C(=O)O[C@H](c3ccccc3)[C@H](c3ccccc3)N1[C@@H]2c1ccccc1OCCO`
Completion: Yes

Prompt: Check this compound for composite z-score at or above 0.01: `CC(C)OC(=O)C=C1C[C@@H](c2ccc(C(F)(F)F)cc2)O[C@@H](c2ccc(C(F)(F)F)cc2)O1`
Completion: Yes

Prompt: Check this compound for composite z-score at or above 0.01: CC(CO)N1C(=O)[C@@H]2[C@H]3C(=O)OCC=C[C@H]3OC23C=CCN(CCN2CCOCC2)C(=O)[C@@H]13 (stereo partly specified)
Completion: No

Prompt: Check this compound for composite z-score at or above 0.01: `COC(=O)[C@@]1(Cc2ccc(OC)cc2)[C@H]2c3cc(C(=O)N4CCCC4)n(Cc4cccc5ccccc45)c3C[C@H]2CN1C(=O)c1ccccc1`
Completion: Yes

Prompt: Check this compound for composite z-score at or above 0.01: `C=C(C)c1cc2c(c(CCCCCC)n1)[Si](C(C)C)(C(C)C)OC2`
Completion: No

Prompt: Check this compound for composite z-score at or above 0.01: `COCCOC(=O)N1C(=O)[C@@]2(c3cc(C#CCCO)ccc31)[C@H](C(=O)Nc1nc3ccccc3s1)[C@H]1C(=O)O[C@H](c3ccccc3)[C@H](c3ccccc3)N1[C@@H]2c1ccccc1OCCO`
Completion: Yes

Prompt: Check this compound for composite z-score at or above 0.01: `CCCCCCc1nc(C2CC2)cc2c1[Si](C(C)C)(C(C)C)OC2`
Completion: No

Prompt: Check this compound for composite z-score at or above 0.01: CCCCCCCCCCC(O)C1C=CC2C(=O)N(C)C(=O)C2N1NC(=O)OC(C)(C)C (stereo unspecified)
Completion: No
